- Target: T1, human glypican-3 (GPC3) (human, UniProt P51654 25-554)
- T1 construct: Endogenous on JHH-7, JHH-5, HepG2 and NCI-H446 tumour cells, or transiently expressed on CHO-S cells from a pTT5 plasmid; also called hGPC3; huGPC3
- Method: flow cytometry on CHO-S cells transfected with human GPC3;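 further: antibody binding to transiently transfected CHO-S cells after 24 hours at 4 °C, read as geometric mean fluorescence of anti-human AF647 in live cells, fitted against antibody concentration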
Measurement Kind: Bmax (MFI)
Quick note: give the figure in MFI, leave out the unit.

Known results for binders:
1) H18L6_LC_G34T mAb, v40209 (antibody, human IgG1, kappa, V domains shown, M3-H18L6 chains with the stated light chain point mutation, IgG1/kappa) VH: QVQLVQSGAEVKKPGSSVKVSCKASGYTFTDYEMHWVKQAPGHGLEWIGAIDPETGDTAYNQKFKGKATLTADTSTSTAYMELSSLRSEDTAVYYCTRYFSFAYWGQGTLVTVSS VL: EIVLTQSPATLSLSPGERATISCRSSQSLRHSNTNTYLQWYQQKPGQAPRLLIYKVSNRFSGVPARFSGSGSGTDFTLTISSLEPEDFAVYFCYQSKHVPYTFGGGTKVEIKR :: 2320
2) codrituzumab (v37575) (antibody, human IgG1, kappa, V domains shown, also called GC33; RG-7686) VH: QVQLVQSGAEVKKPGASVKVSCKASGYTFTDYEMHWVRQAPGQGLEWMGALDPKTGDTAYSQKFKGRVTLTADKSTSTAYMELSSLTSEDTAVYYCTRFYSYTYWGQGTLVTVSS VL: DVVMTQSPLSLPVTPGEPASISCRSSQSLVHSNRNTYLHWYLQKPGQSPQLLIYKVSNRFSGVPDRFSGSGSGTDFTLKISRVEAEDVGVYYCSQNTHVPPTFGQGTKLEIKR :: 2660
3) H18L6_LC_G34E mAb, v40204 (antibody, human IgG1, kappa, V domains shown, M3-H18L6 chains with the stated light chain point mutation, IgG1/kappa) VH: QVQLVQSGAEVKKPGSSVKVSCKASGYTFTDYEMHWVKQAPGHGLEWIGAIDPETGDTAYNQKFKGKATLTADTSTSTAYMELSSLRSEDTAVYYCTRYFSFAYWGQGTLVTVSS VL: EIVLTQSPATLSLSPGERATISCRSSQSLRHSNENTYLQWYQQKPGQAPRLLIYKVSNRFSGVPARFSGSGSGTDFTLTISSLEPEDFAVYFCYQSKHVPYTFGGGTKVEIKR :: 2260
4) H18L6_LC_G34H mAb, v40205 (antibody, human IgG1, kappa, V domains shown, M3-H18L6 chains with the stated light chain point mutation, IgG1/kappa) VH: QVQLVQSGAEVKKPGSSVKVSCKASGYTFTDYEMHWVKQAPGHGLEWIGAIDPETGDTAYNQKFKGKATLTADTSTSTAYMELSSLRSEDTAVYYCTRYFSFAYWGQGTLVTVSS VL: EIVLTQSPATLSLSPGERATISCRSSQSLRHSNHNTYLQWYQQKPGQAPRLLIYKVSNRFSGVPARFSGSGSGTDFTLTISSLEPEDFAVYFCYQSKHVPYTFGGGTKVEIKR :: 2460
5) H18L6_LC_G34S mAb, v40210 (antibody, human IgG1, kappa, V domains shown, M3-H18L6 chains with the stated light chain point mutation, IgG1/kappa) VH: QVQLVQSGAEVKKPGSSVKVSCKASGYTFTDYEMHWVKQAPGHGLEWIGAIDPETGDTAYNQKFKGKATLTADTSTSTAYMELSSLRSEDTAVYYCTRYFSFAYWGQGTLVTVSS VL: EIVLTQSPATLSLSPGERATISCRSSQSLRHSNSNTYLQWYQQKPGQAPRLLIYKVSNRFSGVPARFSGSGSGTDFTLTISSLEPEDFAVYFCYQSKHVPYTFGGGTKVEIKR :: 2360

Q: GET /values?readout=Bmax (MFI)&item= H18L6_LC_G34D mAb, v40203 (antibody, human IgG1, kappa, V domains shown) VH: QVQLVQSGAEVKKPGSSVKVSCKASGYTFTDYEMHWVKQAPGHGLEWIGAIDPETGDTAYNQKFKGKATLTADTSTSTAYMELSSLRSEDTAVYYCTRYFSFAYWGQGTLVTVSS VL: EIVLTQSPATLSLSPGERATISCRSSQSLRHSNDNTYLQWYQQKPGQAPRLLIYKVSNRFSGVPARFSGSGSGTDFTLTISSLEPEDFAVYFCYQSKHVPYTFGGGTKVEIKR
A: 2470

Q: Again, but for H18L6_LC_N33E mAb, v40213 (antibody, human IgG1, kappa, V domains shown, M3-H18L6 chains with the stated light chain point mutation, IgG1/kappa) VH: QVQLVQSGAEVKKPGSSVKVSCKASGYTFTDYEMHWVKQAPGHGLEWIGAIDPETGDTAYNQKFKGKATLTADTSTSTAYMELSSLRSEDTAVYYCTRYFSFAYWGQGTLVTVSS VL: EIVLTQSPATLSLSPGERATISCRSSQSLRHSEGNTYLQWYQQKPGQAPRLLIYKVSNRFSGVPARFSGSGSGTDFTLTISSLEPEDFAVYFCYQSKHVPYTFGGGTKVEIKR
A: 1860
